So I've got a bunch of substances here, and I need their kcat/KM Cath-B values.
- SYSTEM: cathepsin B (Homo sapiens, UniProt P07858)
- Construct: made in house
- PROTOCOL DETAILS: Kinetic parameters of ACC substrates with cathepsin B
- Format: biochemical
- RECORDED CONDITIONS: Fig. 5B; pH 5.5, 37 °C; cathepsin B 4–15 nM; triplicate, SD below 15%
Non-standard residues stand in square brackets, D forms with d. *: point of attachment. Phe(F5) = N[C@@H](Cc1c(F)c(F)c(F)c(F)c1F)C(=O)O; ACC = NC(=O)Cc1cc(=O)oc2cc(N*)ccc12
Numeric answer only, unit M⁻¹ s⁻¹ assumed.

Prompt: Give kcat/KM Cath-B for the following substance: Ac-H[dV][Phe(F5)]R-{ACC} (SMILES CC(=O)N[C@@H](Cc1c[nH]cn1)C(=O)N[C@@H](C(=O)N[C@@H](Cc1c(F)c(F)c(F)c(F)c1F)C(=O)N[C@@H](CCCNC(=N)N)C(=O)Nc1ccc2c(CC(N)=O)cc(=O)oc2c1)C(C)C)
Response: 252

Prompt: Give kcat/KM Cath-B for the following substance: Ac-H[dV][Phe(F5)]L-{ACC} (SMILES CC(=O)N[C@@H](Cc1c[nH]cn1)C(=O)N[C@@H](C(=O)N[C@@H](Cc1c(F)c(F)c(F)c(F)c1F)C(=O)N[C@@H](CC(C)C)C(=O)Nc1ccc2c(CC(N)=O)cc(=O)oc2c1)C(C)C)
Response: 684

---

- SYSTEM: cathepsin V (Homo sapiens)
- Construct: made in house
- Sequence (O60911 114-334): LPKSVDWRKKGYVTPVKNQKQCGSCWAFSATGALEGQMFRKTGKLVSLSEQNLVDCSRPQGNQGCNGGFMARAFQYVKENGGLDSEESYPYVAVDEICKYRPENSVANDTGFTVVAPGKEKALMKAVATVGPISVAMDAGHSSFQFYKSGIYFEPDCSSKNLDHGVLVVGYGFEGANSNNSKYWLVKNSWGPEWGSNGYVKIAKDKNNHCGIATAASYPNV
- PROTOCOL DETAILS: Kinetic parameters of ACC substrates with cathepsin V
- Assay type: biochemical
- RECORDED CONDITIONS: Fig. 5B; pH 5.5, 37 °C; cathepsin V 10–20 nM; triplicate, SD below 15%
Non-standard residues stand in square brackets, D forms with d. *: point of attachment. Phe(F5) = N[C@@H](Cc1c(F)c(F)c(F)c(F)c1F)C(=O)O; Phe(2-Cl) = N[C@@H](Cc1ccccc1Cl)C(=O)O; Phe(3-F) = N[C@@H](Cc1cccc(F)c1)C(=O)O; ACC = NC(=O)Cc1cc(=O)oc2cc(N*)ccc12; Bn = c1ccc(C*)cc1
OBSERVATION TYPE: kcat/KM Cath-V

Prompt: Give kcat/KM Cath-V for the following substance: Ac-H[dV][Phe(F5)]L-{ACC} (SMILES CC(=O)N[C@@H](Cc1c[nH]cn1)C(=O)N[C@@H](C(=O)N[C@@H](Cc1c(F)c(F)c(F)c(F)c1F)C(=O)N[C@@H](CC(C)C)C(=O)Nc1ccc2c(CC(N)=O)cc(=O)oc2c1)C(C)C)
Response: 325 M⁻¹ s⁻¹

Prompt: Give kcat/KM Cath-V for the following substance: Ac-H[dT][Phe(F5)]R-{ACC} (SMILES CC(=O)N[C@@H](Cc1c[nH]cn1)C(=O)N[C@@H](C(=O)N[C@@H](Cc1c(F)c(F)c(F)c(F)c1F)C(=O)N[C@@H](CCCNC(=N)N)C(=O)Nc1ccc2c(CC(N)=O)cc(=O)oc2c1)[C@H](C)O)
Response: 286 M⁻¹ s⁻¹

Prompt: Give kcat/KM Cath-V for the following substance: Ac-H[dV][Phe(3-F)]R-{ACC} (SMILES CC(=O)N[C@@H](Cc1c[nH]cn1)C(=O)N[C@@H](C(=O)N[C@@H](Cc1cccc(F)c1)C(=O)N[C@@H](CCCNC(=N)N)C(=O)Nc1ccc2c(CC(N)=O)cc(=O)oc2c1)C(C)C)
Response: 12,600 M^-1s^-1

Prompt: Give kcat/KM Cath-V for the following substance: Ac-H[dV][Phe(2-Cl)]R-{ACC} (SMILES CC(=O)N[C@@H](Cc1c[nH]cn1)C(=O)N[C@@H](C(=O)N[C@@H](Cc1ccccc1Cl)C(=O)N[C@@H](CCCNC(=N)N)C(=O)Nc1ccc2c(CC(N)=O)cc(=O)oc2c1)C(C)C)
Response: 11,600 M^-1s^-1

Prompt: Give kcat/KM Cath-V for the following substance: Ac-H[dV]T(Bn)R-{ACC} (SMILES CC(=O)N[C@@H](Cc1c[nH]cn1)C(=O)N[C@@H](C(=O)N[C@H](C(=O)N[C@@H](CCCNC(=N)N)C(=O)Nc1ccc2c(CC(N)=O)cc(=O)oc2c1)[C@@H](C)OCc1ccccc1)C(C)C)
Response: 424 M⁻¹ s⁻¹

Prompt: Give kcat/KM Cath-V for the following substance: Ac-H[dK][Phe(F5)]R-{ACC} (SMILES CC(=O)N[C@@H](Cc1c[nH]cn1)C(=O)N[C@H](CCCCN)C(=O)N[C@@H](Cc1c(F)c(F)c(F)c(F)c1F)C(=O)N[C@@H](CCCNC(=N)N)C(=O)Nc1ccc2c(CC(N)=O)cc(=O)oc2c1)
Response: 1,010 M^-1s^-1

Prompt: Give kcat/KM Cath-V for the following substance: Ac-H[dV][Phe(F5)]C(Bn)-{ACC} (SMILES CC(=O)N[C@@H](Cc1c[nH]cn1)C(=O)N[C@@H](C(=O)N[C@@H](Cc1c(F)c(F)c(F)c(F)c1F)C(=O)N[C@@H](CSCc1ccccc1)C(=O)Nc1ccc2c(CC(N)=O)cc(=O)oc2c1)C(C)C)
Response: 1,250 M^-1s^-1

Prompt: Give kcat/KM Cath-V for the following substance: Ac-R[dV][Phe(F5)]R-{ACC} (SMILES CC(=O)N[C@@H](CCCNC(=N)N)C(=O)N[C@@H](C(=O)N[C@@H](Cc1c(F)c(F)c(F)c(F)c1F)C(=O)N[C@@H](CCCNC(=N)N)C(=O)Nc1ccc2c(CC(N)=O)cc(=O)oc2c1)C(C)C)
Response: 333 M⁻¹ s⁻¹

---

- SYSTEM: cathepsin K (Homo sapiens, UniProt P43235)
- Construct: made in house
- Sequence (P43235 115-329): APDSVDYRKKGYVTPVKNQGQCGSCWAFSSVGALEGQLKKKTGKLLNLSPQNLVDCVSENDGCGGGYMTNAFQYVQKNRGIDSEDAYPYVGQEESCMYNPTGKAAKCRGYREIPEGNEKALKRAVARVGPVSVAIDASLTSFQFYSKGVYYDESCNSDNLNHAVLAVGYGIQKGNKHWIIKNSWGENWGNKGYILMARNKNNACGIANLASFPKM
- PROTOCOL DETAILS: Substrate selectivity screening, rate of hydrolysis, cathepsin K
- Assay type: biochemical
- RECORDED CONDITIONS: Table S4; substrate 100µM, cathepsin 5nM; pH 5.5, 37 °C; average of at least three screenings
- Description: All kinetic experiments were performed using fMax (Molecular Devices) and CLARIOStar (BMG LABTECH) spectrofluorimeters operating in kinetic mode using 96-well plates. ACC-labeled substrates were screened using 355 nm and 460 nm wavelengths (excitation and emission, respectively). […] The buffer was prepared at room temperature and the enzyme kinetic studies were performed at 37 °C. […]
Non-standard residues stand in square brackets, D forms with d. *: point of attachment. Phe(2-Cl) = N[C@@H](Cc1ccccc1Cl)C(=O)O; Phe(4-F) = N[C@@H](Cc1ccc(F)cc1)C(=O)O; ACC = NC(=O)Cc1cc(=O)oc2cc(N*)ccc12; Tic = O=C(O)[C@@H]1Cc2ccccc2CN1; dOrn = NCCC[C@@H](N)C(=O)O; Orn = NCCC[C@H](N)C(=O)O
OBSERVATION TYPE: Relative substrate activity (rate of hydrolysis), cathepsin K
Number first, unit second: that is the form wanted.

Prompt: Give Relative substrate activity (rate of hydrolysis), cathepsin K for the following substance: Ac-[Tic][dOrn][Phe(2-Cl)]K-{ACC} (SMILES CC(=O)N1Cc2ccccc2C[C@H]1C(=O)N[C@H](CCCN)C(=O)N[C@@H](Cc1ccccc1Cl)C(=O)N[C@@H](CCCCN)C(=O)Nc1ccc2c(CC(N)=O)cc(=O)oc2c1) [Tic-DArg-Phe(2-Cl)-Lys]
Response: 0.0 RFU/s

Prompt: Give Relative substrate activity (rate of hydrolysis), cathepsin K for the following substance: Ac-[Tic][Orn][Phe(4-F)]L-{ACC} (SMILES CC(=O)N1Cc2ccccc2C[C@H]1C(=O)N[C@@H](CCCN)C(=O)N[C@@H](Cc1ccc(F)cc1)C(=O)N[C@@H](CC(C)C)C(=O)Nc1ccc2c(CC(N)=O)cc(=O)oc2c1)
Response: 0.0 RFU/s

Prompt: Give Relative substrate activity (rate of hydrolysis), cathepsin K for the following substance: Ac-A[dK]K(Ac)R-{ACC} (SMILES CC(=O)NCCCC[C@H](NC(=O)[C@@H](CCCCN)NC(=O)[C@H](C)NC(C)=O)C(=O)N[C@@H](CCCNC(=N)N)C(=O)Nc1ccc2c(CC(N)=O)cc(=O)oc2c1)
Response: 1.2 RFU/s

---

- SYSTEM: cathepsin L (Homo sapiens, UniProt P07711)
- Construct: made in house
- Sequence (P07711 114-333): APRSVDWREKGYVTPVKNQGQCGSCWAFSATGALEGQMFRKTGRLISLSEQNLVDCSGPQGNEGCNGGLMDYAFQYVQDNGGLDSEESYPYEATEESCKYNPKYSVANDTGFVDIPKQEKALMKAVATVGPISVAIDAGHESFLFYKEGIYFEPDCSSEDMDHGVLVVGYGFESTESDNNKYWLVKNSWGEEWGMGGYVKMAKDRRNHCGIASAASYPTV
- PROTOCOL DETAILS: Kinetic parameters of ACC substrates with cathepsin L
- Type: biochemical
- RECORDED CONDITIONS: Table S2; cathepsin L; four independent experiments, S.D. below 15%
Non-standard residues stand in square brackets, D forms with d. *: point of attachment. Phe(3-Cl) = N[C@@H](Cc1cccc(Cl)c1)C(=O)O; ACC = NC(=O)Cc1cc(=O)oc2cc(N*)ccc12; hArg = N=C(N)NCCCC[C@H](N)C(=O)O; ClZ = O=C(OCc1ccccc1Cl)*; Orn = NCCC[C@H](N)C(=O)O; Dap = NC[C@H](N)C(=O)O; Mob = COc1ccc(C*)cc1; Meb = Cc1ccc(C*)cc1; OBn = c1ccc(CO*)cc1; Bn = c1ccc(C*)cc1
OBSERVATION TYPE: kcat (s⁻¹)
Numeric answer only, unit s⁻¹ assumed.

Prompt: Give kcat for the following substance: Ac-[Dap][Orn][Phe(3-Cl)]C(Meb)-{ACC} (SMILES CC(=O)N[C@@H](CN)C(=O)N[C@@H](CCCN)C(=O)N[C@@H](Cc1cccc(Cl)c1)C(=O)N[C@@H](CSCc1ccc(C)cc1)C(=O)Nc1ccc2c(CC(N)=O)cc(=O)oc2c1)
Response: 207

Prompt: Give kcat for the following substance: Ac-[Dap][Orn][Phe(3-Cl)]K(ClZ)-{ACC} (SMILES CC(=O)N[C@@H](CN)C(=O)N[C@@H](CCCN)C(=O)N[C@@H](Cc1cccc(Cl)c1)C(=O)N[C@@H](CCCCNC(=O)OCc1ccccc1Cl)C(=O)Nc1ccc2c(CC(N)=O)cc(=O)oc2c1)
Response: 86.7

Prompt: Give kcat for the following substance: Ac-[Dap][Orn][Phe(3-Cl)]R-{ACC} (SMILES CC(=O)N[C@@H](CN)C(=O)N[C@@H](CCCN)C(=O)N[C@@H](Cc1cccc(Cl)c1)C(=O)N[C@@H](CCCNC(=N)N)C(=O)Nc1ccc2c(CC(N)=O)cc(=O)oc2c1)
Response: 195

Prompt: Give kcat for the following substance: Ac-[Dap][Orn][Phe(3-Cl)]C(Mob)-{ACC} (SMILES COc1ccc(CSC[C@H](NC(=O)[C@H](Cc2cccc(Cl)c2)NC(=O)[C@H](CCCN)NC(=O)[C@H](CN)NC(C)=O)C(=O)Nc2ccc3c(CC(N)=O)cc(=O)oc3c2)cc1)
Response: 193

Prompt: Give kcat for the following substance: Ac-[Dap][Orn][Phe(3-Cl)]L-{ACC} (SMILES CC(=O)N[C@@H](CN)C(=O)N[C@@H](CCCN)C(=O)N[C@@H](Cc1cccc(Cl)c1)C(=O)N[C@@H](CC(C)C)C(=O)Nc1ccc2c(CC(N)=O)cc(=O)oc2c1)
Response: 41.8

Prompt: Give kcat for the following substance: Ac-[Dap][Orn][Phe(3-Cl)]K-{ACC} (SMILES CC(=O)N[C@@H](CN)C(=O)N[C@@H](CCCN)C(=O)N[C@@H](Cc1cccc(Cl)c1)C(=O)N[C@@H](CCCCN)C(=O)Nc1ccc2c(CC(N)=O)cc(=O)oc2c1)
Response: 141

Prompt: Give kcat for the following substance: Ac-[Dap][Orn][Phe(3-Cl)]E(OBn)-{ACC} (SMILES CC(=O)N[C@@H](CN)C(=O)N[C@@H](CCCN)C(=O)N[C@@H](Cc1cccc(Cl)c1)C(=O)N[C@@H](CCC(=O)OCc1ccccc1)C(=O)Nc1ccc2c(CC(N)=O)cc(=O)oc2c1)
Response: 188

Prompt: Give kcat for the following substance: Ac-[Dap][Orn][Phe(3-Cl)][hArg]-{ACC} (SMILES CC(=O)N[C@@H](CN)C(=O)N[C@@H](CCCN)C(=O)N[C@@H](Cc1cccc(Cl)c1)C(=O)N[C@@H](CCCCNC(=N)N)C(=O)Nc1ccc2c(CC(N)=O)cc(=O)oc2c1)
Response: 123

Prompt: Give kcat for the following substance: Ac-[Dap][Orn][Phe(3-Cl)]C(Bn)-{ACC} (SMILES CC(=O)N[C@@H](CN)C(=O)N[C@@H](CCCN)C(=O)N[C@@H](Cc1cccc(Cl)c1)C(=O)N[C@@H](CSCc1ccccc1)C(=O)Nc1ccc2c(CC(N)=O)cc(=O)oc2c1)
Response: 191
